meta.source: ChEMBL document CHEMBL1126730

experimental.system: Glutamate NMDA receptor (Rattus norvegicus) (UniProt P35439+Q00959+Q00960+Q00961+Q62645+Q8VHN2+Q9R1M7)
protocol: Percent inhibition at PCP site of NMDA receptor complex was measured by displacement of […] in whole rat brain homogenate at 10 E-7 M
Type: tissue-based
Reported inhibition by item:
All answers are understood in %, so give the number only.

compound: CNC1c2ccccc2CCC12CCCC2 (stereo not drawn)
readout.unit: %
inhibition: 8

compound: N#CC1CCC2(N)c3ccccc3CCC2C1 (stereo not drawn)
readout.unit: %
inhibition: 2

Problem: Could you share which inhibition value was measured for c1ccc2c(c1)CCC1CCCCC21N1CCCCC1 (stereo not drawn) ?
Result: 7
